# RUN DESCRIPTION: Dose-adjusted steady-state trough serum concentrations before and after low-calorie diet and bariatric surgery
# Type: in vivo, human
# TEST SETTINGS: Table 2B; antiepileptics; trough serum, adjusted for dose in DDDs; after pre-surgery low-calorie diet
Answer each item with its documented Dose-adjusted drug concentration Median (IQR), post-diet.

Answered examples (4):
MOLECULE	REPORTED VALUE
CCCC(CCC)C(=O)O	759 (N/A) µmol/L
CC(C)C[C@H](CN)CC(=O)O	25 (8–33) µmol/L
NCC1(CC(=O)O)CCCCC1	43 (N/A) µmol/L
Nc1nnc(-c2cccc(Cl)c2Cl)c(N)n1	23 (19–29) µmol/L

Note: attention shifts to another entry.
Record CC1(C)O[C@@H]2[C@@H](CO[C@@]3(COS(N)(=O)=O)OC(C)(C)O[C@@H]23)O1 [Topiramate] , field Dose-adjusted drug concentration Median (IQR), post-diet: 31 (N/A) µmol/L

###

Answer each item with its documented Dose-adjusted drug concentration Median (IQR), pre-diet.
# RUN DESCRIPTION: Dose-adjusted steady-state trough serum concentrations before and after low-calorie diet and bariatric surgery
# Assay type: in vivo, human
# TEST SETTINGS: Table 2B; antiepileptics; trough serum, adjusted for dose in DDDs; before low-calorie diet

COMPOUND	REPORTED VALUE
CCCC(CCC)C(=O)O	737 (N/A) µmol/L
CC1(C)O[C@@H]2[C@@H](CO[C@@]3(COS(N)(=O)=O)OC(C)(C)O[C@@H]23)O1 [Topiramate]	39 (N/A) µmol/L
CC(C)C[C@H](CN)CC(=O)O	9.5 (7–21) µmol/L

Could I get Dose-adjusted drug concentration Median (IQR), pre-diet for every one of these entries?
1. Nc1nnc(-c2cccc(Cl)c2Cl)c(N)n1
2. NCC1(CC(=O)O)CCCCC1

17 (15–25) µmol/L
28 (N/A) µmol/L

###

# RUN DESCRIPTION: Dose-adjusted steady-state trough serum concentrations before and after low-calorie diet and bariatric surgery
# Type: in vivo, human
# TEST SETTINGS: human, oral; Table 2A; trough serum, adjusted for dose in DDDs; last observation carried forward, median 379 days after surgery; read-out: Dose-adjusted drug concentration Median (IQR), Post-surgery
# Procedure: We designed the study as a naturalistic longitudinal, prospective case series with intra-individual comparisons of drug concentrations over time, before and up to 1 year after the surgical procedure. The participants contributed blood samples to the current study during routine pre-surgery visits before, and post-surgery visits about 8 weeks, 6 months, and 1 year after, the surgery. […] The samples were stored as serum in −80 °C at a biobank, and analysed after all samples had been collected. […]
TEST READOUT: concentration at 379 days after surgery (median), trough (nM)
One number for each entry, in nM.

Record COc1ccc(C(CN(C)C)C2(O)CCCCC2)cc1 (stereo not shown) [Venlafaxine] , field concentration at 379 days after surgery (median), trough: 168

###

# RUN DESCRIPTION: Dose-adjusted steady-state trough serum concentrations before and after low-calorie diet and bariatric surgery
# Assay type: in vivo, human
# TEST SETTINGS: human, oral; Table 2A; antiepileptics; trough serum, adjusted for dose in DDDs; last observation carried forward, median 379 days after surgery; read-out: Dose-adjusted drug concentration Median (IQR), Post-surgery
TEST READOUT: concentration at 379 days after surgery (median), trough (µM)
Give bare numbers, in µM.

Record Nc1nnc(-c2cccc(Cl)c2Cl)c(N)n1 [Lamotrigine] , field concentration at 379 days after surgery (median), trough: 18

Cited source for all entries: paper PMC8585833
